# system.under.test: TLR2 (Homo sapiens, UniProt O60603)
# Sequence (O60603 21-784): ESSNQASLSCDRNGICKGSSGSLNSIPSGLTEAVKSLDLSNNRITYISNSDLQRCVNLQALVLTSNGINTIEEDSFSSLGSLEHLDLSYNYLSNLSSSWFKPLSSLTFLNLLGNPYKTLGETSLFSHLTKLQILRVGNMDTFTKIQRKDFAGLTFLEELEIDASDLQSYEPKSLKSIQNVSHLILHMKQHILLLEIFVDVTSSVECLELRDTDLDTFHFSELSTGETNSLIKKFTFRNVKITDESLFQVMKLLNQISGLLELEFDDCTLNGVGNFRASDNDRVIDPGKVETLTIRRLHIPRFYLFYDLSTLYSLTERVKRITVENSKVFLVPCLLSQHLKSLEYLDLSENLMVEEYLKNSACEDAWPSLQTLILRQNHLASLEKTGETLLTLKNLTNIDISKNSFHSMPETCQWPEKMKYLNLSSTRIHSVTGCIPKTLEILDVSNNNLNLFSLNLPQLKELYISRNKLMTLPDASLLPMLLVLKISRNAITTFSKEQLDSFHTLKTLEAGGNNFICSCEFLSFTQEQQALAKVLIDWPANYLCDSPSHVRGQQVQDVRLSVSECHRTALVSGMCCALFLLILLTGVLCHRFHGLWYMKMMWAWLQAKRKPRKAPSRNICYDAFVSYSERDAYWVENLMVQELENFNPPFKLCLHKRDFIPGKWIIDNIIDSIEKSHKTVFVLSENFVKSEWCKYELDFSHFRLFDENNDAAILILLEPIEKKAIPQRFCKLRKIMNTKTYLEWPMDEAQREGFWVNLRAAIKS
# Sequence (Q9Y2C9 32-796 partner): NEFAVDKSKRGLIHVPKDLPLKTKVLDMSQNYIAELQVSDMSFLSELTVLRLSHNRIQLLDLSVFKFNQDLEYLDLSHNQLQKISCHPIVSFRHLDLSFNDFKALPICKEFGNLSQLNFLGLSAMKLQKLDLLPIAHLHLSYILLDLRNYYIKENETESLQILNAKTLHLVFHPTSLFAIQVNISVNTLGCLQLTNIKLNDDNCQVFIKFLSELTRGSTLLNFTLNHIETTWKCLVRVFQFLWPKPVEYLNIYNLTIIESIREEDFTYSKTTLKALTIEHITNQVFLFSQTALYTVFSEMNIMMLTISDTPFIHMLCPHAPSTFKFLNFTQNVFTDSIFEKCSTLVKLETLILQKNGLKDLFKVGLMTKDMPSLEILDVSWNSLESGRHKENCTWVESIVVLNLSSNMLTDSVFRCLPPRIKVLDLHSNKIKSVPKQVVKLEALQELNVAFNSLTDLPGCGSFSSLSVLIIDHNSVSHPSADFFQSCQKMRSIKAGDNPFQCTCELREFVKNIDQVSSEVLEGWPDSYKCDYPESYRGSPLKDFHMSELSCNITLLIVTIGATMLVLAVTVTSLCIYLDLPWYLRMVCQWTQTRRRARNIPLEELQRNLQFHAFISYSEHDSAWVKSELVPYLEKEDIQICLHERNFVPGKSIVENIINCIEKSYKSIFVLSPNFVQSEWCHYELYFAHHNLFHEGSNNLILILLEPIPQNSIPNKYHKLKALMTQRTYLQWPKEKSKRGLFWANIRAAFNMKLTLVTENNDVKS
# experiment.summary: NF-κB induction
# Format: cell-based
# test.context: human TLR2 reporter gene assay
assay.readout: TLR2 agonistic activity (in words)

CCCCCCCCCCCCCCCC(=O)NC[C@H](CSC[C@H](N)C(=O)N[C@@H](CO)C(=O)OC)NC(=O)CCCCCCCCCCCCCCC; completely inactive
CCCCCCCCCCCCCCCC(=O)OC[C@@H](CSCCN)OC(=O)CCCCCCCCCCCCCCC; completely inactive

---

# system.under.test: TLR2 (Homo sapiens)
# experiment.summary: NF-κB induction
assay.readout: IC50 (µM)
Express the result in µM but write the number alone.

Return reported IC50; argument: CCCCCCCCCCCCCCCC(=O)OC[C@H](CSCCN)OC(=O)CCCCCCCCCCCCCCC [Compound 6a]
1
